The reported numbers originate from ChEMBL document CHEMBL1201862.

System: HL-60
experiment-notes: NCI tumour cell line growth inhibition, 48 h
Active and inactive are the calls of the source. No stated cut-off is given here; in the data, active = GI50 up to about 1.1 µM and inactive = higher.
Known GI50 of a selection of compounds

Some solved cases for reference:
compound="O=C1/C(=C/c2ccc(Cl)cc2)CCC1CCN1CCOCC1 (stereo unspecified)" experimental_result="23 µM (inactive)"
compound=CCCCc1ccc(-n2sc3ncc([N+](=O)[O-])cc3c2=O)cc1 experimental_result="10.4 µM (inactive)"

Ask: # get_value(readout='GI50', item= CCCOC(=O)C1C2CCC(O2)C1C(=O)O (stereo unspecified) )
Result: > 100 µM (inactive)

Ask: How about this compound: "Cc1cc2c(=O)cc(-c3ccc(O)cc3)oc2c(C(=O)O)c1C"
Result: > 100 µM (inactive)

Ask: How about this compound: Cc1cc(C)c(C(=O)OC(c2ccccc2)C(c2ccccc2)N2CCOCC2)c(C)c1 (stereo unspecified)
Result: 44.6 µM (inactive)

Ask: How about this compound: CC1COC(c2cn[nH]c2C(N)=O)C1O (stereo unspecified)
Result: > 100 µM (inactive)

====

Tested on: HT-29
experiment-notes: NCI tumour cell line growth inhibition, 48 h
The source made the active and inactive calls. No stated cut-off is given here; in the data, active = GI50 up to about 1.1 µM and inactive = higher.
reported-property: GI50

Some solved cases for reference:
molecule=C#CC(C)(C)Oc1cc(OC)c2c(=O)c3ccccc3n(C)c2c1 target_entity=HT-29 experimental_result="4.81 µM (inactive)"
molecule=C=CC(C)(C)N[C@@H](C(=O)N1CCC[C@H]1c1nc(-c2nc(C(=O)OCC=C(C)C)c(C)o2)c(C)o1)C(C)C target_entity=HT-29 experimental_result="19.1 µM (inactive)"

Ask: # get_value(readout='GI50', item= "CSc1c(C(N)=S)c(N)nn1-c1ccccc1" )
Result: > 100 µM (inactive)

Ask: How about this molecule: "CC(=O)Nc1ccc(/C=C/[N+](=O)[O-])cc1"
Result: 1.85 µM (inactive)

Ask: How about this molecule: O=C1C(/C=C/c2ccc(Cl)cc2)=NNC2N1N=C1NC(=O)C3(NN12)c1ccccc1-c1ccccc13 (stereo not given)
Result: 66.2 µM (inactive)

====

Tested on: HOP-62
experiment-notes: NCI tumour cell line growth inhibition, 48 h
Activity calls are given as the source filed them. Cut-off read from the data, not from the text of the source: active = GI50 up to about 1.1 µM and inactive = higher.
reported-property: GI50

compound=CN(C)CCc1ccnc2nc(-c3ccc4ccccc4c3)cn12 target_entity=HOP-62 experimental_result="56.9 µM (inactive)"
compound="Cc1cccc(C(C)(C)C)c1NC(=O)CC1C(=O)Nc2ccccc2[S+]1[O-] (stereo unspecified)" target_entity=HOP-62 experimental_result="> 100 µM (inactive)"
compound=C=Cc1ccccc1C1(O)C=CC(OC)(OC)C=C1 target_entity=HOP-62 experimental_result="6.31 µM (inactive)"
compound=COC(=O)c1c(C(=O)OC)c(-c2ccccc2)n(-c2ccccc2)c(=O)c1-c1ccccc1 target_entity=HOP-62 experimental_result="27.6 µM (inactive)"
compound="CCO[C@H]1O[C@@H]2OC3(C)CCC4[C@H](C)CCC([C@H]1C)[C@]42OO3 (stereo partly specified)" target_entity=HOP-62 experimental_result="> 100 µM (inactive)"
compound=COc1ccc2oc(=N)c(C(=O)Nc3cccc4ccccc34)cc2c1 target_entity=HOP-62 experimental_result="11 µM (inactive)"
compound="C=C1CC2(CCCC3(CC(=C)C(=O)O3)C2(C)C)OC1=O (stereo unspecified)" target_entity=HOP-62 experimental_result="13.9 µM (inactive)"
compound="CCCC/C=C1\\CCC(CN2CCCCC2)C1=O (stereo unspecified)" target_entity=HOP-62 experimental_result="33 µM (inactive)"

Ask: # get_value(readout='GI50', item= "C=CCN1CN(C2CCCCC2)CSC1=S" )
Result: 5.57 µM (inactive)

Ask: How about this compound: "O=c1nc(-c2ccccc2)c2c3c(cccn13)CCC2"
Result: > 100 µM (inactive)

Ask: How about this compound: Cc1ccc2c(c1)-c1c3c(nn1C)-c1ccccc1SC3O2 (stereo unspecified)
Result: > 100 µM (inactive)

====

Tested on: ACHN
experiment-notes: NCI tumour cell line growth inhibition, 48 h
Calls of active or inactive are those of the source. Rule as the data show it: active = GI50 up to about 1.1 µM and inactive = higher.
Bench note: report the call from active, inactive

Solved cases (3 shown):
compound=NNc1nc2ccccc2s1 discrete_label=inactive
compound=CN(/N=C\c1ccnc2ccccc12)c1ccc([N+](=O)[O-])cc1 discrete_label=inactive
compound=O=[N+]([O-])C=C1c2ccccc2-c2ccccc21 discrete_label=inactive

Ask: Hello, I am checking results. What call was entered for "Cc1ccc(Nc2n[nH]c(=S)s2)cc1" ?
Result: inactive

Ask: How about this compound: CCC(C)CN1C(=O)NC(C)(Cc2ccccc2)C1=O (stereo not given)
Result: inactive

Ask: How about this compound: "CCN(CC)C(=O)N1CN(c2ccccc2)C2(CCN(CCCC3(c4ccc(F)cc4)OCCO3)CC2)C1=O"
Result: inactive

Ask: How about this compound: OCC12C3C4C1C1C2C3C41CO (stereo not given)
Result: inactive

Ask: How about this compound: Nc1nc(N)c2nc(CNc3ccc(C(=O)NC(CCCNC(=O)c4ccccc4C(=O)O)C(=O)O)cc3)cnc2n1 (stereo not given)
Result: active

Ask: How about this compound: "CC(=O)O[C@@H]1C[C@@]2(C)[C@@H]3CC=C4[C@@H](C[C@H](O)C(=O)C4(C)C)[C@]3(C)C(=O)C[C@]2(C)[C@H]1[C@@](C)(O)C(=O)/C=C/C(C)(C)OC(C)=O"
Result: active

Ask: How about this compound: N#CC1(C#N)C2C=CC(c3coc4cccc2c34)C1(C#N)C#N (stereo not given)
Result: inactive

====

System: NCI/ADR-RES
experiment-notes: NCI tumour cell line growth inhibition, 48 h
The source made the active and inactive calls. Cut-off read from the data, not from the text of the source: active = GI50 up to about 1.1 µM and inactive = higher.
reported-property: GI50

Some solved cases for reference:
compound="CCCOC(=O)C1C2CCC(O2)C1C(=O)O (centres undefined)" target_entity=NCI/ADR-RES reported_property=GI50 experimental_result="> 100 µM (inactive)"
compound=O=C(O)/C=C/c1c[nH]c(=O)[nH]c1=O target_entity=NCI/ADR-RES reported_property=GI50 experimental_result="> 344 µM (inactive)"
compound=O=C(CSc1n[nH]c(=O)[nH]c1=O)NNC(=O)c1cccc2nc3ccccc3nc12 target_entity=NCI/ADR-RES reported_property=GI50 experimental_result="> 100 µM (inactive)"

Here is another compound to look at.
Ask: Form entry - test system: NCI/ADR-RES; read-out: GI50; compound: O=C(O)c1cc(N(Cc2ccccc2O)Cc2cc(O)ccc2O)ccc1O [LAVENDUSTIN A]
Result: > 100 µM (inactive)

====

Tested on: CAKI-1
experiment-notes: NCI tumour cell line growth inhibition, 48 h
Active and inactive are the calls of the source. No stated cut-off is given here; in the data, active = GI50 up to about 1.1 µM and inactive = higher.
Known GI50 of a selection of molecules

molecule=O=C(CCc1cc(-c2ccco2)n(-c2ccc([N+](=O)[O-])cc2[N+](=O)[O-])n1)Nc1ccccc1 reported_property=GI50 experimental_result="> 100 µM (inactive)"
molecule=CCCCC1(NN=C2CCCCC2)C(=O)N(c2ccccc2)N(c2ccccc2)C1=O reported_property=GI50 experimental_result="> 100 µM (inactive)"
molecule=O=c1[nH]cc(/N=C/c2cc(Cl)cc(Cl)c2O)c(=O)[nH]1 reported_property=GI50 experimental_result="24.6 µM (inactive)"
molecule="CCCCCCCCCCCC(=O)N(CCCCCCCCCCC(=O)O)CC(O)C(O)C(OC1OC(CO)C(O)C(O)C1O)C(O)CO (stereo not given)" reported_property=GI50 experimental_result="> 100 µM (inactive)"

Here is another molecule to look at.
Ask: # get_value(readout='GI50', item= "O=C(CNc1ccccn1)Nn1cnc2ccc(S(=O)(=O)Nc3ccccn3)cc2c1=O" )
Result: > 100 µM (inactive)

====

System: MDA-MB-435
experiment-notes: NCI tumour cell line growth inhibition, 48 h
Calls of active or inactive are those of the source. Cut-off read from the data, not from the text of the source: active = GI50 up to about 1.1 µM and inactive = higher.
reported-property: GI50

Some solved cases for reference:
compound=O=c1c2ccccc2[se]n1-c1cccnc1 experimental_result="22.2 µM (inactive)"
compound=CC1(C)OP(=O)(O)C=C1Sc1ccc([N+](=O)[O-])cc1[N+](=O)[O-] experimental_result="> 100 µM (inactive)"
compound=CCOC(=O)c1c(CN2CCOCC2)n(Cc2ccccc2)c2c1cc(O)c1nc(C)c(C)nc12 experimental_result="> 100 µM (inactive)"

Ask: # get_value(readout='GI50', item= "Cc1nc2c(=O)[nH]c3ccc(Cl)cc3c2o1" )
Result: > 100 µM (inactive)

Ask: How about this compound: COc1cc(C2C3C=CC=C4CC=CC(=C43)C3CCC(=O)N32)cc(OC)c1OC (stereo unspecified)
Result: > 100 µM (inactive)

Ask: How about this compound: "CS(=O)(=O)c1nc(Cl)c(Cl)c(C#N)c1Cl"
Result: 2.01 µM (inactive)

Ask: How about this compound: "COc1ccc(/C=C2\NC(=S)N(CN3CCCCC3)C2=O)cc1"
Result: 52.7 µM (inactive)

Ask: How about this compound: "[N-]=[N+]=Nc1c([N+](=O)[O-])c(=O)n(-c2ccccc2)c2ccccc12"
Result: 21 µM (inactive)

Ask: How about this compound: "O=S(=O)(O)c1ccc2c(/N=N/c3ccc(S(=O)(=O)O)c4ccccc34)c(O)c(S(=O)(=O)O)cc2c1"
Result: > 100 µM (inactive)

Ask: How about this compound: OCCSCC(O)Cn1cnc2c(O)nc(Nc3ccccc3)nc21 (stereo unspecified)
Result: > 100 µM (inactive)

Ask: How about this compound: "O=c1[nH]cc(/N=C/c2cc(Cl)cc(Cl)c2O)c(=O)[nH]1"
Result: 23.5 µM (inactive)
